Target Of Assay: T1, human mutCALR on BaF3 cells stably expressing human MPL and human mutCALR (MPL-mutCALR cells) (human)
T1 construct: also called mutant calreticulin
T1 chain: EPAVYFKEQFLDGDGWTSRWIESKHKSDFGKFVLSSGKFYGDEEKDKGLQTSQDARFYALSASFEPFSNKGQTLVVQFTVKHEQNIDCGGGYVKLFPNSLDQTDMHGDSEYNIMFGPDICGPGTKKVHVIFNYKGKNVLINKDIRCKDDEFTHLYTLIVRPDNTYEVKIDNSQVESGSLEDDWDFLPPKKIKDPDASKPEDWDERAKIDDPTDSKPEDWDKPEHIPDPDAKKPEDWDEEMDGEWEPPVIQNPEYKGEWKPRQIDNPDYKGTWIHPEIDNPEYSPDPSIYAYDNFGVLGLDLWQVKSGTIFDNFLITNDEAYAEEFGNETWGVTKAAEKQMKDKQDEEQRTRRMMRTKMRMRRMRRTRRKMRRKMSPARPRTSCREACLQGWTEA
Assay Procedure: flow cytometry, BaF3 MPL-mutCALR cells
Experimental: On the day of the assay, cells were washed and resuspended in assay buffer. Approximately 200,000 cells/well were added to 96-well plates and stained with the indicated concentration of antibodies for 30 minutes on ice. Cells were then washed and stained with goat anti-human secondary conjugated to R-phycoerythrin (R-PE) (Jackson Immuno Research Laboratories) for 30 minutes on ice. The cells were then washed and analyzed by flow cytometry.
Assignment: determine reported log10(EC50) for the given binders.
A difference of one corresponds to tenfold EC50; all values are log10 with EC50 in ng/mL.

If you can, please state the reported log10(EC50) value of anti-mutCALR antibody clone 29 (antibody, human IgG1, lambda, V domains shown, human IgG1) VH: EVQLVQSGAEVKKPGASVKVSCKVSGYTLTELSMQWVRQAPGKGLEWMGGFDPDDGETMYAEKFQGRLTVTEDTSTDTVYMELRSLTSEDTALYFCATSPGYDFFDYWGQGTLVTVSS VL: SYVLTQPPSVSVAPGKTARITCGGNNIGSKSVHWYQQKPGQAPVLVVYDDSDRPSGIPERFSGSNSGNTATLTISRVEAGDEADYYCQVWDSSSDLLIFGGGAKLTVLG .
3.50

// query log10(EC50) value for entry anti-mutCALR antibody clone 78 (antibody, human IgG1, lambda, N297A, V domains shown) VH: EVQLVQSGAEVKKPGASVKVSCKVSGYTLTELSMQWVRQAPGKGLEWMGGFDPDEGETMYAEKFQGRLTVTEDTSTDTVYMELRSLTSEDTALYFCATSPGYDFFDYWGQGTLVTVSS VL: SYVLTQPPSVSVAPGKTARITCGGNNIGSKSVHWYQQKPGQAPVLVVYDDSDRPSGIPERFSGSNSGNTATLTISRVEAGDEADYYCQVWDSSNDLLIFGGGTKLTVLG
0.74

Can you share its log10(EC50)? I mean this binder: anti-mutCALR antibody clone 82 (antibody, human IgG1, lambda, N297A, V domains shown) VH: EVQLVQSGAEVKKPGASVKVSCKVSGYTLTELSMQWVRQAPGKGLEWMGGFDPDSGETMYAEKFQGRLTVTEDTSTDTVYMELSSLRSEDTAVYFCATSPGYDFFDYWGQGTLVTVSS VL: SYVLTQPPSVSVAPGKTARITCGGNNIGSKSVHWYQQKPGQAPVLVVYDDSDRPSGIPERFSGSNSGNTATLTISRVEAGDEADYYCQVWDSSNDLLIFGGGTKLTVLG
0.68

Look up log10(EC50): anti-mutCALR antibody clone 38 (antibody, human IgG1, kappa, V domains shown, human IgG1) VH: EVQPVQSGAEVKKPGSSVKVSCKASGGTFSSYAISWVRQAPGQGLEWMGLVDPEDGETIYAEKFRGRVTITADTSTDTAYMELSSLRSEDTAVYYCATEESYGPWGQGTLVTVSS VL: DIQLTQSPSSLSASVGDRVTITCQASQDISNYLNWYQQKPGKAPKLLIYDASNLETGVPSRFSGSGSGTEFTLTISSLQPEDFATYYCQQLNSYPLTFGGGTKLEIKR
3.16

// returns reported log10(EC50) for input anti-mutCALR antibody clone 69 (antibody, human IgG1, lambda, N297A, V domains shown) VH: EVQLVQSGAEVKKPGASVKVSCKVSGYTLTELSMQWVRQAPGKGLEWMGGFDPDDAETMYAEKFQGRLTVTEDTSTDTVYMELRSLTSEDTALYFCATSPGYDFFDYWGQGTLVTVSS VL: SYVLTQPPSVSVAPGKTARITCTGTSSDVGGYNYVSWYQQKPGQAPVLVVYEVSNRPSGIPERFSGSNSGNTATLTISRVEAGDEADYYCQVWDSSNDLLIFGGGTKLTVLG
0.32
